Kindly state Ki for each of the entries shown.
# test_target: histamine H3 receptor (Homo sapiens)
# Construct: clone 3H3; membranes
# Sequence (Q9Y5N1 whole entry): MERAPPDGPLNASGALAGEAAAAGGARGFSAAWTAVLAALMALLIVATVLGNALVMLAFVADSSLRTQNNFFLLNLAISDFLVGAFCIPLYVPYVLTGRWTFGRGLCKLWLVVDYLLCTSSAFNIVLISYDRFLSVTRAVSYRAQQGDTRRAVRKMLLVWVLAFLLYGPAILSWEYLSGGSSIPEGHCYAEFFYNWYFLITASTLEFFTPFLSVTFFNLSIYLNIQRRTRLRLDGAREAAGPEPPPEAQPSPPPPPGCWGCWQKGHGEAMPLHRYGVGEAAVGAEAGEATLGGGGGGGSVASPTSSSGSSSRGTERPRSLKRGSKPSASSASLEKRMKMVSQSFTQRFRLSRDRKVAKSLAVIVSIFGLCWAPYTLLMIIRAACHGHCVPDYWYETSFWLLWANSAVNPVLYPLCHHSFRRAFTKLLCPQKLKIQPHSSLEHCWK
# method_summary: Histamine H3 functional antagonist assay ([35S]GTPγS, SPA, membranes of CHO K1 cells expressing the receptor)
# test_settings: histamine-stimulated GTPγS binding, membranes with human H3
Counter-ions that a name gives are not always drawn.

Inquiry: Query the reported Ki for histamine H3 receptor (Homo sapiens); item: CC(C)(C)OC(=O)c1ccc(N2CCC(OC3CCN(C4CCC4)CC3)CC2)cn1
Reply text: ≤ 1 nM

Inquiry: Query the reported Ki for histamine H3 receptor (Homo sapiens); item: Cc1cc(-c2ccc(N3CCC(OC4CCN(C5CCC5)CC4)CC3)cc2)on1
Reply text: ≤ 1 nM

Inquiry: Query the reported Ki for histamine H3 receptor (Homo sapiens); item: CN(C)C(=O)c1ccc(N2CCC(OC3CCN(C4CCC4)CC3)CC2)nc1
Reply text: ≤ 1 nM

Inquiry: Query the reported Ki for histamine H3 receptor (Homo sapiens); item: CC(C)N1CCC(OC2CCN(c3cccc(C(=O)N4CCOCC4)n3)CC2)CC1
Reply text: < 10 nM

Inquiry: Query the reported Ki for histamine H3 receptor (Homo sapiens); item: O=C(NC1CCC1)c1ccc(N2CCC(OC3CCN(C4CCC4)CC3)CC2)cn1
Reply text: ≤ 1 nM

Inquiry: Query the reported Ki for histamine H3 receptor (Homo sapiens); item: O=C(NCCCCl)c1ccc(N2CCC(OC3CCN(C4CCC4)CC3)CC2)cc1 [Example E15, hydrochloride]
Reply text: ≤ 1 nM

Inquiry: Query the reported Ki for histamine H3 receptor (Homo sapiens); item: CC(C)N1CCC(OC2CCN(c3ccc(C(=O)N(C)C)cn3)CC2)CC1
Reply text: < 10 nM

Inquiry: Query the reported Ki for histamine H3 receptor (Homo sapiens); item: CNC(=O)c1ccc(N2CCC(OC3CCN(C(C)C)CC3)CC2)nc1
Reply text: < 10 nM

Inquiry: Query the reported Ki for histamine H3 receptor (Homo sapiens); item: O=C(c1ccc(N2CCC(OC3CCN(C4CCC4)CC3)CC2)cn1)N1CCOCC1
Reply text: ≤ 1 nM

Inquiry: Query the reported Ki for histamine H3 receptor (Homo sapiens); item: CC(=O)c1ccc(N2CCC(OC3CCN(C4CCC4)CC3)CC2)nc1
Reply text: ≤ 1 nM

Inquiry: Query the reported Ki for histamine H3 receptor (Homo sapiens); item: O=C(c1cccc(N2CCC(OC3CCN(C4CCC4)CC3)CC2)n1)N1CCOCC1
Reply text: < 10 nM

Inquiry: Query the reported Ki for histamine H3 receptor (Homo sapiens); item: CNC(=O)c1cccc(N2CCC(OC3CCN(C4CCC4)CC3)CC2)n1
Reply text: ≤ 1 nM

Inquiry: Query the reported Ki for histamine H3 receptor (Homo sapiens); item: CNC(=O)c1ccc(N2CCC(OC3CCN(C(C)C)CC3)CC2)cc1
Reply text: < 10 nM

Inquiry: Query the reported Ki for histamine H3 receptor (Homo sapiens); item: CC(C)N1CCC(OC2CCN(c3ccc(C#N)nc3)CC2)CC1 [Example E80, hydrochloride]
Reply text: ≤ 1 nM

Inquiry: Query the reported Ki for histamine H3 receptor (Homo sapiens); item: O=C(c1ccc(N2CCC(OC3CCN(C4CCC4)CC3)CC2)cc1)C1CC1
Reply text: ≤ 1 nM

Inquiry: Query the reported Ki for histamine H3 receptor (Homo sapiens); item: O=C(NC1CCCC1)c1ccc(N2CCC(OC3CCN(C4CCC4)CC3)CC2)cn1
Reply text: ≤ 1 nM

Inquiry: Query the reported Ki for histamine H3 receptor (Homo sapiens); item: CC(=O)c1ccc(N2CCC(OC3CCN(C4CCC4)CC3)CC2)cc1 [Example E48, hydrochloride]
Reply text: < 0.316 nM

Inquiry: Query the reported Ki for histamine H3 receptor (Homo sapiens); item: Cc1noc(-c2ccc(N3CCC(OC4CCN(C5CCC5)CC4)CC3)cc2F)n1
Reply text: ≤ 1 nM

Inquiry: Query the reported Ki for histamine H3 receptor (Homo sapiens); item: c1coc(-c2ccc(N3CCC(OC4CCN(C5CCC5)CC4)CC3)cc2)n1
Reply text: ≤ 1 nM

Inquiry: Query the reported Ki for histamine H3 receptor (Homo sapiens); item: O=C(c1ccc(N2CCC(OC3CCN(C4CCC4)CC3)CC2)cn1)N1CCCCC1
Reply text: ≤ 1 nM

Inquiry: Query the reported Ki for histamine H3 receptor (Homo sapiens); item: Cc1noc(-c2ccc(N3CCC(OC4CCN(C(C)C)CC4)CC3)c(F)c2)n1 [Example E112, hydrochloride]
Reply text: ≤ 1 nM

Inquiry: Query the reported Ki for histamine H3 receptor (Homo sapiens); item: CC(C)N1CCC(OC2CCN(c3ccc(C(=O)N(C)C)cc3)CC2)CC1
Reply text: ≤ 1 nM

Inquiry: Query the reported Ki for histamine H3 receptor (Homo sapiens); item: c1ncc(-c2ccc(N3CCC(OC4CCN(C5CCC5)CC4)CC3)cc2)o1
Reply text: ≤ 1 nM
